- Study system: human FSH receptor (Homo sapiens)
- Construct: cotransfected with CRE-luciferase reporter
- Method notes: Antagonistic activity of compounds at the human FSH receptor expressed in CHO cells (CRE-luciferase reporter)
- Test conditions: CHO cells stably transfected with human FSH receptor and CRE/luciferase reporter; together with 49 μM recFSH; 4 hours incubation; 1% DMSO; read-out: IC50 (concentration of test compound causing half-maximal inhibition of the maximally attainable inhibition of the luciferase stimulation)
Reported metric: IC50

A selection of reference data follows.
Kindly note: human FSH receptor (Homo sapiens), "COc1cc2c(cc1OC(C)C)-c1cc(C(=O)N[C@@H](CO)Cc3c[nH]c4ccccc34)c(C(=O)C(C)(C)C)n1CC2" , IC50 value reported: < 100 nM

Reading of IC50 for "COc1cc2c(cc1OC(C)C)-c1cc(C(=O)N[C@@H](CO)Cc3c[nH]c4ccccc34)c(-c3ccc(N)nc3)n1CC2" with human FSH receptor (Homo sapiens): 100 to 1000 nM

The value of IC50 recorded for "COc1cc2c(cc1OC(C)C)-c1cc(C(=O)N[C@@H](CO)Cc3c[nH]c4ccccc34)c(C=C(C)C)n1CC2" when tested on human FSH receptor (Homo sapiens) reads < 100 nM

Next:
Readout IC50 for "C=CCOc1cc2c(cc1OC)CCn1c-2cc(C(=O)N[C@@H](CO)Cc2c[nH]c3ccccc23)c1-c1cccc(F)c1" , test system human FSH receptor (Homo sapiens), was 100 to 1000 nM

----------
- Study system: human FSH receptor (Homo sapiens, UniProt P23945)
- Construct: cotransfected with CRE-luciferase reporter
- Method notes: Antagonistic activity of compounds at the human FSH receptor expressed in CHO cells (CRE-luciferase reporter)
- Test conditions: CHO cells stably transfected with human FSH receptor and CRE/luciferase reporter; together with 49 μM recFSH; 4 hours incubation; 1% DMSO; read-out: IC50 (concentration of test compound causing half-maximal inhibition of the maximally attainable inhibition of the luciferase stimulation)
Reported metric: IC50

The reported IC50 of the compound "COc1cc2c(cc1-c1cnc(N(C)C)nc1)-c1cc(C(=O)N[C@@H](CO)Cc3c[nH]c4ccccc34)c(-c3cccs3)n1CC2" was < 0.1 µM

Kindly note the recorded IC50 for COc1cc2c(cc1C(C)C(C)C)-c1cc(C(=O)N[C@@H](CO)Cc3c[nH]c4ccccc34)c(-c3cccc(F)c3)n1CC2 (stereo partly shown) , which is < 0.1 µM

Measured IC50 of "CCCC(=O)c1c(C(=O)N[C@@H](CO)Cc2c[nH]c3ccccc23)cc2n1CCc1cc(OC)c(OC(C)C)cc1-2" : < 0.1 µM

Noted for "COCCOc1cc2c(cc1OC)CCn1c-2cc(C(=O)N[C@@H](CO)Cc2c[nH]c3ccccc23)c1-c1cccc(F)c1" : its IC50 reads < 0.1 µM

What the record says about "C=CCOc1cc2c(cc1OC)CCn1c-2cc(C(=O)N[C@@H](CO)Cc2c[nH]c3ccccc23)c1-c1cccs1" : IC50 is < 0.1 µM

Noted for "COc1cc2c(cc1-c1cnn(C)c1)-c1cc(C(=O)N[C@@H](CO)Cc3c[nH]c4ccccc34)c(-c3cccc(F)c3)n1CC2" : its IC50 reads < 0.1 µM

Please fill in: IC50 reported for "COc1cc2c(cc1OC)-c1cc(C(=O)N[C@@H](CO)Cc3c[nH]c4ccccc34)c(-c3ccc(F)cc3)n1CC2" = < 0.1 µM

Sample "COc1cc2c(cc1OC(C)C)-c1cc(C(=O)N[C@@H](CO)Cc3c[nH]c4ccccc34)c(C(=O)C(C)C)n1CC2" ; IC50 observed: < 0.1 µM

Lab note: measured IC50 of "COc1cc2c(cc1C(=O)N(C)C)-c1cc(C(=O)N[C@@H](CO)Cc3c[nH]c4ccccc34)c(-c3cccc(F)c3)n1CC2" was 0.1 to 1 µM

The value of IC50 measured for the compound "COc1cc2c(cc1OC(C)C)-c1cc(C(=O)N[C@@H](CO)Cc3c[nH]c4ccccc34)c(C(=O)C3CC3)n1CC2" turned out to be < 0.1 µM

New cases:
Form: compound = "COc1cc2c(cc1OC)-c1cc(C(=O)N[C@@H](CO)Cc3c[nH]c4ccccc34)c(-c3ccccn3)n1CC2" ; IC50 = < 0.1 µM

For this compound ( "COc1cc2c(cc1OC(C)C)-c1cc(C(=O)N[C@@H](CO)Cc3c[nH]c4ccccc34)c(-c3cccc(Cl)c3)n1CC2" ), measured IC50 is < 0.1 µM

Lab note: "COc1cc2c(cc1C=C(C)C)-c1cc(C(=O)N[C@@H](CO)Cc3c[nH]c4ccccc34)c(-c3cccc(F)c3)n1CC2" gave IC50 of < 0.1 µM

----------
- Study system: human FSH receptor (Homo sapiens, UniProt P23945)
- Construct: cotransfected with CRE-luciferase reporter
- Method notes: Antagonistic activity of compounds at the human FSH receptor expressed in CHO cells (CRE-luciferase reporter)
- Test conditions: CHO cells stably transfected with human FSH receptor and CRE/luciferase reporter; together with 49 μM recFSH; 4 hours incubation; 1% DMSO; read-out: IC50 (concentration of test compound causing half-maximal inhibition of the maximally attainable inhibition of the luciferase stimulation)
pIC50: −log10 of the molar value.
Recorded measurements of pIC50, one per entry

Per the records, this molecule ( COc1cc2c(cc1OC(C)C)-c1cc(C(=O)NC(CO)C3(c4c[nH]c5ccccc45)CC3)c(-c3cccc(F)c3)n1CC2 (stereo not drawn) ) has pIC50 equal to 6.00 to 7.00

Form: molecule = "COc1cc2c(cc1OCc1ccccc1)-c1cc(C(=O)N[C@@H](CO)Cc3c[nH]c4ccccc34)c(-c3cccc(F)c3)n1CC2" ; pIC50 = > 7.00

Looking up "COc1cc2c(cc1-c1cnn(C)c1)-c1cc(C(=O)N[C@@H](CO)Cc3c[nH]c4ccccc34)c(-c3cccs3)n1CC2" , I found its pIC50 recorded as > 7.00

So for "COc1cc2c(cc1OC(C)C)-c1cc(C(=O)N[C@@H](CO)Cc3c[nH]c4ccccc34)c(-c3ccc(F)cc3)n1CC2" , the logged pIC50 turned out to be > 7.00

For this molecule ( "COc1cc2c(cc1OC)-c1cc(C(=O)N[C@@H](CO)Cc3c[nH]c4ccccc34)c(-c3cc(C)cc(C)c3)n1CC2" ), measured pIC50 is 6.00 to 7.00

---
The molecule listed as CCCC(C)Oc1cc2c(cc1OC)CCn1c-2cc(C(=O)N[C@@H](CO)Cc2c[nH]c3ccccc23)c1-c1cccc(F)c1 (stereo partly drawn) shows pIC50 equal to > 7.00

----------
Measured pIC50 by item
- Study system: human FSH receptor (Homo sapiens)
- Construct: cotransfected with CRE-luciferase reporter
- Sequence (P23945 18-695): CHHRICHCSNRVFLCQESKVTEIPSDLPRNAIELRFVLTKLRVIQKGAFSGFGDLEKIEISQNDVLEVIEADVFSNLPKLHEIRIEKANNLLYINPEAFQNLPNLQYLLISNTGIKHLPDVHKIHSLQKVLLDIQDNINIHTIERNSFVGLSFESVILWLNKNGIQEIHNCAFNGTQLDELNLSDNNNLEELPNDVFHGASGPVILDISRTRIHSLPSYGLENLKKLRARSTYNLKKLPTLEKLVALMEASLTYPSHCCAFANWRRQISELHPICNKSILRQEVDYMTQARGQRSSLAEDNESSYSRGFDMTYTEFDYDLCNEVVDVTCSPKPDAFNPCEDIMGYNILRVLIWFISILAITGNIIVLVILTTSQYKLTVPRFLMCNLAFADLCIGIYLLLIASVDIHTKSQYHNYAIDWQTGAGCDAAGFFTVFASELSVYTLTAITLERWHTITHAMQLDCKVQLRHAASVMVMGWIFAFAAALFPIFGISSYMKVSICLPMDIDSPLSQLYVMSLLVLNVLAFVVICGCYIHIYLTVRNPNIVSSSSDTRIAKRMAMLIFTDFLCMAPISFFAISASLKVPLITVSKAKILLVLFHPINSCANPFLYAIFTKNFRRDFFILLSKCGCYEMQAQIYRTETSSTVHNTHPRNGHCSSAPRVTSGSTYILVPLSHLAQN
- Method notes: Antagonistic activity of compounds at the human FSH receptor expressed in CHO cells (CRE-luciferase reporter)
- Test conditions: CHO cells stably transfected with human FSH receptor and CRE/luciferase reporter; together with 49 μM recFSH; 4 hours incubation; 1% DMSO; read-out: IC50 (concentration of test compound causing half-maximal inhibition of the maximally attainable inhibition of the luciferase stimulation)
pIC50: −log10 of the molar value.

// pIC50 lookup, compound = "COc1cc2c(cc1OC)-c1nc(C(=O)N[C@@H](CO)Cc3c[nH]c4ccccc34)c(-c3ccccc3F)n1CC2" , result: 6.00 to 7.00

The reported pIC50 of the compound "COc1cc2c(cc1OCCO)-c1cc(C(=O)N[C@@H](CO)Cc3c[nH]c4ccccc34)c(-c3cccc(F)c3)n1CC2" was > 7.00

Looking up "COc1cc2c(cc1-c1cncnc1)-c1cc(C(=O)N[C@@H](CO)Cc3c[nH]c4ccccc34)c(-c3cccs3)n1CC2" , I see its pIC50 listed as > 7.00

// field: pIC50; key: "COc1cc2c(cc1OC)-c1nc(C(=O)N[C@@H](CO)Cc3c[nH]c4ccccc34)c(-c3ccccc3OC)n1CC2" ; value = 6.00 to 7.00

Memo: "COc1cc2c(cc1OC)-c1cc(C(=O)N[C@@H](CO)Cc3c[nH]c4ccccc34)c(-c3ccccc3)n1CC2" , reported pIC50: > 7.00

---
Query "COc1cc2c(cc1O)-c1cc(C(=O)N[C@@H](CO)Cc3c[nH]c4ccccc34)c(-c3cccc(F)c3)n1CC2" yields pIC50 of 6.00 to 7.00

pIC50 measured on "COc1cc2c(cc1OC(C)C)-c1cc(C(=O)N[C@@H](CO)Cc3c[nH]c4ccccc34)c(CC(C)C)n1CC2" = > 7.00

Item: "COc1cc2c(c(OC)c1OC)-c1cc(C(=O)N[C@@H](CO)Cc3c[nH]c4ccccc34)c(-c3ccccc3)n1CC2" | pIC50: > 7.00

So for "CC(C)Oc1cc2c(cc1OC(C)C)-c1cc(C(=O)N[C@@H](CO)Cc3c[nH]c4ccccc34)c(-c3ccccc3)n1CC2" , the logged pIC50 turned out to be 6.00 to 7.00

// pIC50 lookup, compound = "COc1cc2c(cc1-c1cnc(N(C)C)nc1)-c1cc(C(=O)N[C@@H](CO)Cc3c[nH]c4ccccc34)c(-c3cccc(F)c3)n1CC2" , result: 6.00 to 7.00

pIC50 reading for "COc1cc(-c2cc3c(cc2OC)CCn2c-3cc(C(=O)N[C@@H](CO)Cc3c[nH]c4ccccc34)c2-c2cccs2)ccn1" : > 7.00

What the record says about "COc1ccccc1-c1c(C(=O)N[C@@H](CO)Cc2c[nH]c3ccccc23)nc2n1CCc1cc(OC)c(OC)nc1-2" : pIC50 is > 7.00

Given item "COc1cc2c(cc1-c1cccnc1OC)-c1cc(C(=O)N[C@@H](CO)Cc3c[nH]c4ccccc34)c(-c3cccs3)n1CC2" , the value recorded as its pIC50 is > 7.00

Input "COc1cc2c(cc1OC(C)C)-c1cc(C(=O)N[C@@H](CO)Cc3c[nH]c4ccccc34)c(-c3cccc(C)c3)n1CC2" . Output pIC50: > 7.00
